Consider the following substances and their measured % inhibition readings.
Tested on: AR mRNA
Test: Antisense inhibition of human AR in HuVEC cells, single concentration (electroporation, qRT-PCR RTS3559)
Type: cell-based
Settings: Table 24, 1,000 nM oligonucleotide, electroporation, approximately 24 hours, relative to untreated control
Oligonucleotides are written 5' to 3', each unit as a sugar letter and its base; * is a phosphorothioate linkage, no mark a phosphodiester; rarer units and linkages stand in square brackets, end groups in braces. Plain capitals give the bases only. k = constrained ethyl (cEt); [5mC] = 5-methylcytosine; d = 2'-deoxy (DNA)
Numeric only. Scale: %

Example results:
> print(dat)
                                  substance  study.system  attribute.measured  unit.label  numeric.result
1  584165 (kT*k[5mC]*kA*dA*dT*d[5mC]*dT*dA*dG*dA*dT*dA*d[5mC]*k[5mC]*kA*kT; antisense) [compound 584165]       AR mRNA        % inhibition           %              70
2  584167 (kG*kA*kG*dT*dG*dT*dT*dA*dA*dT*dG*dA*dA*kG*kA*k[5mC]; antisense) [compound 584167]       AR mRNA        % inhibition           %              78
3  584145 (kA*kT*kG*dG*dG*dA*dG*dT*dA*dA*d[5mC]*dT*dT*kT*kT*kG; antisense) [compound 584145]       AR mRNA        % inhibition           %              76
4  584163 (kG*kA*kA*d[5mC]*dA*dT*dT*dA*dT*dT*dA*dG*dG*k[5mC]*kT*kA) [compound 584163]       AR mRNA        % inhibition           %              81

Query block: Fill in the blank: the reported % inhibition of 584180 (kG*kT*kA*dG*dA*dT*dT*d[5mC]*dT*dA*dG*d[5mC]*dT*kT*kT*kG; antisense) [compound 584180] is ____.
Result block: 81

Query block: % inhibition lookup needed for 584148 (k[5mC]*kA*kT*dA*dT*dT*dA*dT*dT*dG*dT*dG*d[5mC]*kT*kG*k[5mC]; antisense) [compound 584148] , thanks.
Result block: 85
